Would you mind telling me the reported activation of each entry?
- Tgt: Aryl hydrocarbon receptor (Homo sapiens)
- Protocol summary: AHR activators, primary screen, cell-based, luminescence, luciferase reporter, human (AID 2796);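 further: 0% = vehicle wells and 100% = reference agonist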
- Condition details: AHR-responsive luciferase reporter cells, at 5 µM, stronger effect = higher value
Out of some 320,000 compounds screened, about 8,000 (2.5%) were called active. For the sample, actives were picked, then their nearest neighbours and some compounds at random.

Problem: Fill in the blank: the reported activation of "Cc1c(-c2ccccc2)n[nH]c1C(=O)N=Nc1c(O)[nH]c2ccccc12" is ____.
Solution: -6.16% (inactive)

Problem: Also need CC(C)c1ccc(C2C(C#N)=C(N)Oc3c2oc(CO)cc3=O)cc1 (stereo unspecified) , thanks.
Solution: 1.15% (inactive)

Problem: Also need "O=c1ccc2cc(S(=O)(=O)Nc3ccccc3F)ccc2o1" , thanks.
Solution: -0.99% (inactive)

Problem: Also need CCOP(=O)(OCC)C(Nc1ccc([N+](=O)[O-])cc1)c1ccc(Cl)cc1 (stereo unspecified) , thanks.
Solution: 0.69% (inactive)

Problem: Also need "COc1ccc2nc(NC(=O)[C@@H]3CCCN3C(=O)c3cccs3)sc2c1" , thanks.
Solution: 23.1% (inactive)

Problem: Also need "CCOC(=O)c1nc(Nc2ccc(C(=O)OC)cc2)c2ccccc2n1" , thanks.
Solution: 1.95% (inactive)

Problem: Also need CCc1ccc(N(C(=O)c2csnn2)C(C(=O)NC2CCCCC2)c2ccncc2)cc1 (stereo unspecified) , thanks.
Solution: 3.1% (inactive)

Problem: Also need CC(NC(=O)CN(C)S(=O)(=O)c1ccc(F)cc1)C1CC2CCC1C2 (stereo unspecified) , thanks.
Solution: -0.07% (inactive)

Problem: Also need "Cn1ncc2c(N3CCCCC3)nc(NCCCO)nc21" , thanks.
Solution: 5.05% (inactive)

Problem: Also need O=C(Cn1nc(Cc2cccnc2)c2ccccc2c1=O)NCC1COc2ccccc2O1 (stereo unspecified) , thanks.
Solution: 0.07% (inactive)

Problem: Also need CCOC(=O)c1cccc(NC(=O)C2CCCN(S(=O)(=O)c3cnc[nH]3)C2)c1 (stereo unspecified) , thanks.
Solution: 0.81% (inactive)

---

- Tgt: Aryl hydrocarbon receptor (Homo sapiens) (UniProt P35869)
- Sequence (P35869 whole entry, looked up): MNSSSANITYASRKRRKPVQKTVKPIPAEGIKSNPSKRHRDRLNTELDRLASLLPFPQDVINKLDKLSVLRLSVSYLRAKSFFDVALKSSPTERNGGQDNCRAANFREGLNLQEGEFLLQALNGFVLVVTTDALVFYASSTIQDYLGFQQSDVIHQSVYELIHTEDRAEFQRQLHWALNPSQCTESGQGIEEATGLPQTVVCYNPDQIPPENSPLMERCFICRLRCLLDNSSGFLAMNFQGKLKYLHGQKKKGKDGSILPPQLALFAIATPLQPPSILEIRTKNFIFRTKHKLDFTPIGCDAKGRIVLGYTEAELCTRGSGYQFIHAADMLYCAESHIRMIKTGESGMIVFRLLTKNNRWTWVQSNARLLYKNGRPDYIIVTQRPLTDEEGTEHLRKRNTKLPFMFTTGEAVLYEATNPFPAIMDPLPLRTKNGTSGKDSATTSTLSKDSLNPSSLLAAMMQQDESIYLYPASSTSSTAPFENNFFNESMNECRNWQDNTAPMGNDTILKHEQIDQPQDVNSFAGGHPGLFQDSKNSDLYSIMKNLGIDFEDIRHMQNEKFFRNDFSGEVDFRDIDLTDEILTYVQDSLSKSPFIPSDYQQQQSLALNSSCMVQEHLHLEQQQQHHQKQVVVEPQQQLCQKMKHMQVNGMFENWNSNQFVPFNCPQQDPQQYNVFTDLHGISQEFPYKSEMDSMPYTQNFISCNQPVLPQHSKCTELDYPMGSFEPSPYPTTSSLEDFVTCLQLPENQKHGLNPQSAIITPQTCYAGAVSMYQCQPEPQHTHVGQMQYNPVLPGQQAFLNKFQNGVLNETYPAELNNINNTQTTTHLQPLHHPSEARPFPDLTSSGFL
- Protocol summary: AHR activators, primary screen, cell-based, luminescence, luciferase reporter, human (AID 2796);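 further: 0% = vehicle wells and 100% = reference agonist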
- Condition details: AHR-responsive luciferase reporter cells, at 5 µM, stronger effect = higher value
Out of some 320,000 compounds screened, about 8,000 (2.5%) were called active. The sample holds actives, similar compounds and a random draw of the others, so the mix is not that of the screen.
Would you mind telling me the reported activation of each entry?
Express it in %; write the number only.

Problem: Record "CCN1C(=O)/C(=C2\SC(N3CCCCC3)=NC2=O)c2ccccc21" : what is its activation with Aryl hydrocarbon receptor (Homo sapiens) (UniProt P35869)?
Solution: 22.2

Problem: Also need "C#CCNc1ccc(C(=O)OCC)cc1" , thanks.
Solution: -1.69

Problem: Also need "CN(C)c1nc(Nc2ccc(Cl)c(Cl)c2)nc(N(C)C)n1" , thanks.
Solution: 130

Problem: Also need "CC(=O)NS(=O)(=O)c1ccc(NC(=O)/C=C/c2ccccc2Cl)cc1" , thanks.
Solution: 7.35

Problem: Also need "COc1ccc(NC(=O)c2cnc(NS(=O)(=O)c3ccccc3)nc2)cc1" , thanks.
Solution: -2.22

Problem: Also need CCOC(=O)c1ccc2[nH]c3c(c2c1)CCCC3NC=O (stereo unspecified) , thanks.
Solution: 115

Problem: Also need "CNc1nc(Nc2ccc(C)c(Cl)c2)nc(N)c1[N+](=O)[O-]" , thanks.
Solution: 38.2

Problem: Also need COc1ccc(N2CC(C(=O)NCCN3C(=O)S/C(=C\c4cccnc4)C3=O)CC2=O)c(OC)c1 (stereo unspecified) , thanks.
Solution: -0.14

Problem: Also need O=[N+]([O-])c1ccc2[nH]c3c(c2c1)CCCC3O (stereo unspecified) , thanks.
Solution: -1.41

Problem: Also need "O=C(Nc1ncc2c(n1)-c1ccccc1OC2)c1ccc(Cl)cc1" , thanks.
Solution: 37

Problem: Also need "CN(C)c1nc(NN)nc(Nc2ccc(F)cc2)n1" , thanks.
Solution: 76.4

---

- Tgt: Aryl hydrocarbon receptor (Homo sapiens)
- Protocol summary: AHR activators, primary screen, cell-based, luminescence, luciferase reporter, human (AID 2796);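 further: 0% = vehicle wells and 100% = reference agonist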
- Condition details: AHR-responsive luciferase reporter cells, at 5 µM, stronger effect = higher value
About 8,000 (2.5%) of roughly 320,000 compounds were called active. The full list was thinned out, with actives kept by preference.
Would you mind telling me the reported activation of each entry?
Express it in %; write the number only.

Problem: Record "FC(F)(F)c1ccc(-n2cn[nH]c2=S)cc1" : what is its activation with Aryl hydrocarbon receptor (Homo sapiens)?
Solution: -2.71

Problem: Also need "Cc1cccc(NC(=O)c2ccc3nsnc3c2)c1C" , thanks.
Solution: 10.3

Problem: Also need "Cc1ccc(OCc2n[nH]c(=S)n2-c2ccccc2)cc1" , thanks.
Solution: 2.23

Problem: Also need "COc1ccccc1N1CCN(C(=O)c2cc3c(-c4ccc(Cl)cc4)nn(C)c3s2)CC1" , thanks.
Solution: 121

Problem: Also need "CC(C)(C)c1ccc(C(=O)NCc2ccco2)cc1" , thanks.
Solution: 9.26

Problem: Also need CC(Oc1cccc(NC(=O)c2cccs2)c1)C(=O)c1ccccc1 (configuration not stated) , thanks.
Solution: 5.22

Problem: Also need "O=S(=O)(Cc1ccccc1)c1nc2ccccc2n1Cc1ccccn1" , thanks.
Solution: -1.4

Problem: Also need "Cc1sc2ncnc(Sc3nc4ccccc4s3)c2c1C" , thanks.
Solution: 47.2

Problem: Also need Cc1ccccc1N1C(=O)C(Oc2ccc(Cl)cc2)C1CNCC1CCCO1 (configuration not stated) , thanks.
Solution: -0.77

Problem: Also need "COc1cccc(-n2c(SCC(=O)NC3CCCCC3)nc3n[nH]c(C)c3c2=N)c1" , thanks.
Solution: 104

Problem: Also need "COc1ccc2c(Cl)c(C(=O)NCc3ccco3)sc2c1" , thanks.
Solution: -3

Problem: Also need "CCOC(=O)N1CCN(C(=O)c2ccc3nc4cc(Cl)ccc4c(=O)n3c2)CC1" , thanks.
Solution: 5.36

Problem: Also need "S=c1[nH]nc(-c2cc(-c3ccsc3)n[nH]2)n1-c1ccccc1" , thanks.
Solution: 84

Problem: Also need COCCN(C(=O)CCC(=O)Nc1nccs1)C(C(=O)NC(C)(C)C)c1ccc(Cl)cc1 (configuration not stated) , thanks.
Solution: 0.14

Problem: Also need "O=C(Nc1cccc(NC(=O)c2cccc(F)c2)c1)c1ccccc1" , thanks.
Solution: 26.6

Problem: Also need "Cc1cccc(-c2oc3ccc(-c4ccc5c(c4)OCO5)cc3c2C#Cc2cncn2C)c1" , thanks.
Solution: 26.5

Problem: Also need "Cn1nc(-c2ccc(Cl)cc2)c2cc(C(=O)NCc3ccco3)sc21" , thanks.
Solution: 79.7

Problem: Also need CC(C)CCNC(=O)C(C)N(C(=O)Cn1nnc(-c2ccc(F)cc2)n1)C1CCCC1 (configuration not stated) , thanks.
Solution: -2.15

Problem: Also need "O=C(Nc1ccc(N2C(=O)c3cccc4cccc(c34)C2=O)cc1)c1ccc(N2CCCCC2)c([N+](=O)[O-])c1" , thanks.
Solution: -0.89

Problem: Also need COc1cccc(NC(=O)CC(c2ccc(OC(C)C)cc2)c2ccccc2OC)c1 (configuration not stated) , thanks.
Solution: -0.21

Problem: Also need "Cc1cc(C(=O)NNC(=O)CCC2CCCCC2)c(C)o1" , thanks.
Solution: 1.65

Problem: Also need "Cn1nc(C(F)(F)F)c2cc(C(=O)N3CCOCC3)sc21" , thanks.
Solution: -0.43

---

Would you mind telling me the reported activation of each entry?
- Tgt: Aryl hydrocarbon receptor (Homo sapiens)
- Protocol summary: AHR activators, primary screen, cell-based, luminescence, luciferase reporter, human (AID 2796);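 further: 0% = vehicle wells and 100% = reference agonist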
- Condition details: AHR-responsive luciferase reporter cells, at 5 µM, stronger effect = higher value
About 8,000 (2.5%) of roughly 320,000 compounds were called active. This excerpt belongs to a sample that is enriched for actives.
Express it in %; write the number only.

Problem: Fill in the blank: the reported activation of "CCn1c(CN2C(=O)CSc3ccccc32)n[nH]c1=S" is ____.
Solution: 1.51

Problem: Also need "O=C(CSc1nnc(-c2ccccc2O)o1)NC1CCCCC1" , thanks.
Solution: -6.68

Problem: Also need "Clc1ccc(CSc2nnc([C@@H]3CCCN3)o2)cc1" , thanks.
Solution: 0.21

Problem: Also need COC(=O)C1=C(N)Oc2c(oc(CO)cc2=O)C1c1c(F)cccc1Cl (stereo unspecified) , thanks.
Solution: -0.25

Problem: Also need "O=c1c2ccccc2c(-c2ccccc2)nn1-c1ccccn1" , thanks.
Solution: 0.2

Problem: Also need "CCCCn1c(N)c(N(CCOC)C(=O)CSCC(=O)Nc2cccc(C)c2)c(=O)[nH]c1=O" , thanks.
Solution: 1.66
